Recorded Bliss excess for the following compounds
tested on: RPMI-6666 (Non-Cancerous); test: Bliss excess, mean over the matrix (fraction); higher = more synergy;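 also: after 72 h of two-drug dosing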

Consider the worked cases shown below.
{"COMPOUND": "CC1(C)CCC(CN2CCN(c3ccc(C(=O)NS(=O)(=O)c4ccc(NCC5CCOCC5)c([N+](=O)[O-])c4)c(Oc4cnc5[nH]ccc5c4)c3)CC2)=C(c2ccc(Cl)cc2)C1 [Venetoclax] + C1CN(CCC1(C(=O)N[C@@H](CCO)C2=CC=C(C=C2)Cl)N)C3=NC=NC4=C3C=CN4 [Capivasertib] (first compound max 1 µM, 7x7, partner max 3 µM)", "MEASURE": "Bliss excess", "RESULT VALUE": 0.0217}
{"COMPOUND": "Cn1cnc2c(F)c(Nc3ccc(Br)cc3Cl)c(C(=O)NOCCO)cc21 [Selumetinib] + CC(C)n1c(=O)n(C)c2cnc3cc(F)c(-c4ccc(OCCCN5CCCCC5)nc4)cc3c21 [AZD1390] (first compound max 10 µM, 7x7, partner max 0.3 µM)", "MEASURE": "Bliss excess", "RESULT VALUE": -0.0234}

According to the records, this compound Cc1c2c(nn1C)CSCc1cc(n(C)n1)CSc1cc(c3ccccc3c1)OCCCc1c(C(=O)O)n(C)c3c-2c(Cl)ccc13 [AZD5991] + C1CN(CCC1(C(=O)N[C@@H](CCO)C2=CC=C(C=C2)Cl)N)C3=NC=NC4=C3C=CN4 [Capivasertib] (first compound max 1 µM, 7x7, partner max 3 µM) displays Bliss excess of 0.0216

Documented Bliss excess of N#Cc1cnc(Nc2cc(NC[C@H]3CNCCO3)c(C(F)(F)F)cn2)cn1 [SRA737] + O=c1[nH]cc(F)c(=O)[nH]1 [5-Fluorouracil] (first compound max 10 µM, 7x7, partner max 20 µM) : -0.003
